Reference for the values: paper PMC3901569

# systemTested: UniProtKB P09619
# Sequence (P09619 33-1106): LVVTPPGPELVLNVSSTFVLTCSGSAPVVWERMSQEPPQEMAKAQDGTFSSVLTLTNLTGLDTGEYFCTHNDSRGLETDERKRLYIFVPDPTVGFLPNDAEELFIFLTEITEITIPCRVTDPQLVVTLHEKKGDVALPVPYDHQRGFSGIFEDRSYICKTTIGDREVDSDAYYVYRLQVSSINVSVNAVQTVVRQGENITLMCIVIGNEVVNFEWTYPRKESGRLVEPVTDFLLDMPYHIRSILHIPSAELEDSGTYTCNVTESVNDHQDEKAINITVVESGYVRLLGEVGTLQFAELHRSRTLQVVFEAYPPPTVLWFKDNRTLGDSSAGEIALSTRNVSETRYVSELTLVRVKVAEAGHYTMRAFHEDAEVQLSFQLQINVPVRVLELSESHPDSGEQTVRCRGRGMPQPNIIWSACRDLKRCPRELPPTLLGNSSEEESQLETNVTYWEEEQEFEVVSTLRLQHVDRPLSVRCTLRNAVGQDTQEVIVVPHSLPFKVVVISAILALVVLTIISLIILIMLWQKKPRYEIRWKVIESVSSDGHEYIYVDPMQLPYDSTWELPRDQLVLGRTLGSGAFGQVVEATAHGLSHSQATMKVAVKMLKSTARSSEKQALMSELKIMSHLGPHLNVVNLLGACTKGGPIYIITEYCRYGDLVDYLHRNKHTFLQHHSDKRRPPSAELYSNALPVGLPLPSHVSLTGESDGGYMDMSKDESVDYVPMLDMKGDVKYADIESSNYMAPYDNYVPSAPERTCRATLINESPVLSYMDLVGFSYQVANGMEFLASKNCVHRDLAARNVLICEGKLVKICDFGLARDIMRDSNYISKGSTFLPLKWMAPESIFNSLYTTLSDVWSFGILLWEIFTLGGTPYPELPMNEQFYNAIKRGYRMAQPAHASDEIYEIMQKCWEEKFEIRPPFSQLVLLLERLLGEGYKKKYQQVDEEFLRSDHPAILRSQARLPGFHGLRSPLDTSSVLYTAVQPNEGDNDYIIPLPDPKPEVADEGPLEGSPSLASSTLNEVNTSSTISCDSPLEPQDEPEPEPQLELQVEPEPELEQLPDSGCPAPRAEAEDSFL
parameter: IC50

Enquiry: Please report the recorded IC50 for c1ccc2c(-c3cnn4cc(-c5ccc(N6CCNCC6)cc5)cnc34)ccnc2c1 [LDN-193189, reference compound] .
Return: < 100 nM

Now look at this one.
Enquiry: Would you kindly share the measured IC50 for `c1cc(-c2cnn3cc(-c4ccc(N5CCNCC5)cc4)cnc23)c2cccnc2c1` ?
Return: < 100 nM

* * *

# systemTested: KIT (Homo sapiens)
# Sequence (P10721 26-976): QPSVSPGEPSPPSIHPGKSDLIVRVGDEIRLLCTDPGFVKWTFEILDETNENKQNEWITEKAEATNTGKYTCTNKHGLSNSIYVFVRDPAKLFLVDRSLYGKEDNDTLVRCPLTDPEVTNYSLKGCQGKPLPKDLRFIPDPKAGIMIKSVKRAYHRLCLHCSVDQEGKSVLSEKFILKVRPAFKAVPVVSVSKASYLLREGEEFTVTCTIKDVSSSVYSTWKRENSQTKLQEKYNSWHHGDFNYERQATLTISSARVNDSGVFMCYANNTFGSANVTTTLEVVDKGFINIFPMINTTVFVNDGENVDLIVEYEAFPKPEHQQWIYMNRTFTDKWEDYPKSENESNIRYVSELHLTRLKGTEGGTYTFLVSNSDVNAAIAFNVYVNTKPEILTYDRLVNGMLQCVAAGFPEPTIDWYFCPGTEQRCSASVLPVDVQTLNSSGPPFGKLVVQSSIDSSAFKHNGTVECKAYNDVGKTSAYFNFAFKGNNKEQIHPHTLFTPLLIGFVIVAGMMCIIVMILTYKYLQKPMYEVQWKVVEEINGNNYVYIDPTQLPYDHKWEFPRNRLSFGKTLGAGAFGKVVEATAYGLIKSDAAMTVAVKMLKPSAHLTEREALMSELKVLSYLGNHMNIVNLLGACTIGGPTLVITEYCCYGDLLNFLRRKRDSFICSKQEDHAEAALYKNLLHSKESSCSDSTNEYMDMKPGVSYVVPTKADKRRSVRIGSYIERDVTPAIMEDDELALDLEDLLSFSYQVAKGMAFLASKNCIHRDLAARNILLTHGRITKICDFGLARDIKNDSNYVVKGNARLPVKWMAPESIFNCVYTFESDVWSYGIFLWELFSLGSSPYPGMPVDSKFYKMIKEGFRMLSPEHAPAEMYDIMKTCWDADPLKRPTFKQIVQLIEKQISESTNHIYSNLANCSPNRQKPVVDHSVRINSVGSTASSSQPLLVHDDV
pIC50: −log10 of the molar value.
Each item that follows carries a reported pIC50.

Enquiry: Look up pIC50 with KIT (Homo sapiens) for this compound: c1ccc2c(-c3cnn4cc(-c5ccc(N6CCNCC6)cc5)cnc34)ccnc2c1 [LDN-193189, reference compound]
Return: < 6.52

Switching to the query record.
Enquiry: Report pIC50 for `c1cc(-c2cnn3cc(-c4ccc(N5CCNCC5)cc4)cnc23)c2cccnc2c1` tested on KIT (Homo sapiens).
Return: < 6.52
